- Assay Target: H3 histaminergic receptors (Rattus norvegicus)
- Sequence (Q9QYN8 whole entry): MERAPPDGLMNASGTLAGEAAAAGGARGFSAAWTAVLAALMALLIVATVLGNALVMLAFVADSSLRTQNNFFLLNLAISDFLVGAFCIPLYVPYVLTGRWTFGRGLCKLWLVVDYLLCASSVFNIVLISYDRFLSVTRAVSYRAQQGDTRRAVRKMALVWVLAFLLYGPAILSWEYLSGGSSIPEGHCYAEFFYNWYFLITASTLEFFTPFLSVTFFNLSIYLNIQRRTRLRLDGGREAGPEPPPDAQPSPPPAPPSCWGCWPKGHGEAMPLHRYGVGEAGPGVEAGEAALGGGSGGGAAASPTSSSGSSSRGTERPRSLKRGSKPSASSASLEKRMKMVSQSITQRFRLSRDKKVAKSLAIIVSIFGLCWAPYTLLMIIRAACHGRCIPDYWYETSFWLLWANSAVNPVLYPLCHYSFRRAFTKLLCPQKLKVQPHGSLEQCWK
- Assay Details: Reversal by H3 antagonists of exogenous histamine-induced inhibition of histamine release in sections of rat cerebral cortex (Arrang et al.)
- Assay type: biochemical
Counter-ions that a name gives are not always drawn.
Readout Name: Ki (nM)

CCCCCCC(=O)N1CCC(c2cnc[nH]2)CC1 ... 48

[1] O=C(CCCCCCc1ccccc1)N1CCC(c2c[nH]cn2)CC1
[2] O=C(CC1CC2CCC1C2)N1CCC(c2c[nH]cn2)CC1 (centres unmarked)
[Q] Hi, I'm comparing 1 with 2 and wondering which one has the bigger number for Ki. Any idea? Response format: the label of the selected entry.
[A] 1
(1: 65 nM, 2: 23 nM)

[P] O=C(C1CC1c1ccccc1)N1CCC(c2c[nH]cn2)CC1 (centres unmarked)
[Q] O=C(CCc1ccccc1)N1CCC(c2c[nH]cn2)CC1 [Compound 38, (Oxalate)]
[R] OC(=CCCc1ccccc1)N1CCC(c2c[nH]cn2)CC1 [Compound 59, (Dihydrochloride)]
[Q] Order the records so the highest Ki appears first and the lowest last. Sort and list the labels as requested.
[A] Q, R, P
(Q: 84 nM, R: 47 nM, P: 20 nM)

[P] O=C(NCCC1CCCCC1)N1CCC(c2c[nH]cn2)CC1
[Q] O=C(CCCc1cccs1)N1CCC(c2c[nH]cn2)CC1
[R] OC(=CCCCCCCCCCOc1ccccc1)N1CCC(c2c[nH]cn2)CC1 [Compound 60, (dihydrochloride)]
[Q] Order the records so the highest Ki appears first and the lowest last. Sort and list the labels as requested.
[A] R, P, Q
